Hello, the source for this data is patent US20260317319A1, in case you need it.

# target.under.test: 5-HT2A receptor (Homo sapiens, UniProt P28223)
# Sequence (P28223 whole entry): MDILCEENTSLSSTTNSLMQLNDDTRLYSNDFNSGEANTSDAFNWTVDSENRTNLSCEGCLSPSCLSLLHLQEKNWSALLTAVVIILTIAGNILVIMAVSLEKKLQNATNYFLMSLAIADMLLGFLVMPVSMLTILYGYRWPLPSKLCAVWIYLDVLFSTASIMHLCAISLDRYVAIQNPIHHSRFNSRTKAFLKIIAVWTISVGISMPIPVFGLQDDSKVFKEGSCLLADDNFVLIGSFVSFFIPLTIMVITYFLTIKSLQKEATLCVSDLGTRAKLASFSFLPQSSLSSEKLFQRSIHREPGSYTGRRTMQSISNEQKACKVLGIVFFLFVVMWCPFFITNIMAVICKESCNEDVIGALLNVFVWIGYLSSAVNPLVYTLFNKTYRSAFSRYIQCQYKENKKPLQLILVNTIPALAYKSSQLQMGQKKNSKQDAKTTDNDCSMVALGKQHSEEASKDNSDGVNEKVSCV
# experiment.notes: cell-based
# Assay type: cell-based
# Design: expressed in transfected cells; host or cells: HEK293, stably transfected
# experimental.context: HEK293, agonist, Ca2+ flux, HEK293, max dose; read-out: 5-HT2A % Act @ Max Dose
Response field label takes 1.0 when Emax is strictly below 70% and 0.0 in all other cases.

Example cases with answers are listed next.
Query: # check: Emax < 70% for CCCN1C[C@H](C(=O)N2[C@@H](C)C[C@@H]2C)C=C2c3cccc4[nH]cc(c34)C[C@H]21
Result: 0.0

Query: # check: Emax < 70% for CCN(CC)C(=O)[C@@H]1C=C2c3cccc4[nH]cc(c34)C[C@H]2N(CC2CCCCC2)C1
Result: 1.0

Query: # check: Emax < 70% for CCCN(CC)C(=O)[C@@H]1C=C2c3cccc4[nH]cc(c34)C[C@H]2N(Cc2cccc(OC)c2)C1
Result: 1.0

Query: # check: Emax < 70% for CCN(CC)C(=O)[C@@H]1C=C2c3cccc4[nH]cc(c34)C[C@H]2N(Cc2ccc(F)c(OC)c2)C1
Result: 0.0

Query: # check: Emax < 70% for C[C@H]1C[C@H](C)N1C(=O)[C@@H]1C=C2c3cccc4[nH]cc(c34)C[C@H]2N(CCCF)C1
Result: 0.0

Next:
Query: # check: Emax < 70% for CCN(CC)C(=O)[C@@H]1C=C2c3cccc4[nH]cc(c34)C[C@H]2N(CCc2ccccn2)C1
Result: 0.0

Query: # check: Emax < 70% for CCN(CC)C(=O)[C@@H]1C=C2c3cccc4[nH]cc(c34)C[C@H]2N(Cc2cccc(F)c2)C1
Result: 0.0

Query: # check: Emax < 70% for C=CCN1C[C@H](C(=O)N[C@H](C)CC)C=C2c3cccc4[nH]cc(c34)C[C@H]21
Result: 0.0

###

# target.under.test: 5-HT2A receptor (Homo sapiens, UniProt P28223)
# experiment.notes: cell-based
# Format: cell-based
# Set-up: expressed in transfected cells; host or cells: HEK293, stably transfected
# experimental.context: agonist, Ca2+ flux, HEK293
Each record here notes measured EC50.
All answers are understood in nM, so give the number only.

Worked examples follow.
Query: I have this compound here, CCN(CC)C(=O)[C@@H]1C=C2c3cccc4[nH]cc(c34)C[C@H]2NC1 [Compound 83] , and I need its recorded EC50.
Result: 1.7

Query: I have this compound here, CCN(CC)C(=O)[C@@H]1C=C2c3cccc4[nH]cc(c34)C[C@H]2N(Cc2ccc(F)c(F)c2)C1 [Compound 54] , and I need its recorded EC50.
Result: 1870

Query: I have this compound here, CCN(CC)C(=O)[C@@H]1C=C2c3cccc4[nH]cc(c34)C[C@H]2N(Cc2ccccc2)C1 [Compound 82] , and I need its recorded EC50.
Result: 422

Below: the item to evaluate.
Query: I have this compound here, CCNC(=O)[C@@H]1C=C2c3cccc4[nH]cc(c34)C[C@H]2N(Cc2cccc(O)c2)C1 [Compound 64] , and I need its recorded EC50.
Result: 53.3

###

Each record here notes measured half-life.
# experiment.notes: in vitro
# Format: in vitro ADME, human
# experimental.context: human, microsomes; HLM 0.50 mg/mL, NADPH 1 mM, 1 μM compound, pH 7.4, 37° C., 60 min; read-out: half-life (t1/2)
All answers are understood in min, so give the number only.

Worked examples follow.
Query: I have this compound here, CC[C@@H](C)NC(=O)[C@@H]1C=C2c3cccc4[nH]cc(c34)C[C@H]2N(Cc2ccccc2)C1 , and I need its recorded half-life.
Result: 3

Query: I have this compound here, CCN(CC)C(=O)[C@H]1C=C2c3cccc4[nH]cc(c34)C[C@H]2N(CC2CCCC2)C1 [Compound 90a] , and I need its recorded half-life.
Result: 8.8

Query: I have this compound here, CCN(CC)C(=O)[C@@H]1C=C2c3cccc4[nH]cc(c34)C[C@H]2N(Cc2ccc(F)c(OC)c2)C1 , and I need its recorded half-life.
Result: 20.1

Below: the item to evaluate.
Query: I have this compound here, CCN(CC)C(=O)[C@H]1C=C2c3cccc4[nH]cc(c34)C[C@H]2N(CC2CCCCC2)C1 [Compound 89a] , and I need its recorded half-life.
Result: 15.2
